- assay-comment: qHTS assay to identify small molecule agonists of H2AX - cell viability counter screen (AID 1224847); also: nearly all actives have a fitted effect of over 30% in size; also: potency is read from the fitted curve at half-maximal effect
- experimental-conditions: CHO-K1 viability, CellTiter-Glo luminescence, 3 h; series mostly up to 154 µM
Results filed as inconclusive are left out. Active and inactive are the calls of the source. Calls follow the shape of the full dose curve.
readout-label: Potency

Check out these entries, answers already filled in.
Name the recorded Potency for CC[C@]1(O)CC[C@H]2[C@@H]3CCC4=CCCC[C@@H]4[C@H]3CC[C@@]21C . inactive

Can you share its Potency? I mean this compound: CO/N=C(\C(=O)OC)c1ccccc1CO/N=C(\C)c1cccc(C(F)(F)F)c1 2.01 µM (active)

Item under review: Nc1ccccc1-c1ccccc1 . Reported Potency? inactive

Given the entry Cc1nn(-c2cc(NS(C)(=O)=O)c(Cl)cc2Cl)c(=O)n1C(F)F , report its measured Potency. inactive

For c1ccc2nc(N3CCNCC3)ccc2c1 , what is its reported Potency? inactive

# get_value(readout='Potency', item= CCNS(=O)(=O)C(F)(F)C(F)(F)C(F)(F)C(F)(F)C(F)(F)C(F)(F)C(F)(F)C(F)(F)F ) inactive

Reported Potency, compound CC[N+]1(CC)CCC(OC(=O)C(O)(c2ccccc2)c2ccccc2)C1 (stereo not drawn) : ____ inactive

Let us examine a further case.
I'd like to know its Potency. The compound in question is N#Cc1sc2c(=O)c3ccccc3c(=O)c=2sc1C#N 101 µM (active)

====

Quick list: max response per entry.
- assay-comment: qHTS RealTime-Glo MT Cell Viability Assay in HEK293 cells - 40 hour (AID 1224874); also: % is scaled to controls: 0 for no effect and ±100 for the full control effect; nearly all actives have a fitted effect of over 50% in size
- experimental-conditions: RealTime-Glo luminescence; hits give low values
Inconclusive results are not listed.
Kindly answer with a numeric value in %, unit omitted.

I am curious: what max response value has been reported for ClCBr ? 7.13

Tell me the measured max response of CNC(C)(C)Cc1ccccc1 , please. 6.36

Please look up its max response: C#CCO 3.5

Requested read-out: max response. Entry: CC(C)[C@@H](Nc1ccc(C(F)(F)F)cc1Cl)C(=O)OC(C#N)c1cccc(Oc2ccccc2)c1 (stereo not given in full) -6.7

Recorded max response of c1ccc2nc(N3CCNCC3)ccc2c1 , please. -17.1

***
Which max response value belongs to O=C(O)[C@H](O)[C@@H](O)C(=O)O ? 5.57

Need max response, item O=C(Cl)c1ccccc1F -0.0017

Please look up its max response: CN=C=O 8.4

What value of measured max response is listed for BrCCCBr ? 6.85

====

- system-name: Cytochrome P450 3A4 (Homo sapiens)
- assay-comment: Cytochrome P450 Family 3 Subfamily A Member 4 (CYP3A4) small molecule antagonists: luciferase reporter qHTS assay (AID 1671201); also: nearly all actives have a fitted effect of over 50% in size
- experimental-conditions: P450-Glo CYP3A4 enzyme, luciferin luminescence, 1 h; series mostly up to 115 µM
- From the text: National Center for Advancing Translational Sciences [NCATS] U.S. Environmental Protection Agency [EPA] National Institutes of Environmental Health Sciences [NIEHS] National Toxicology Program [NTP] U.S. Food and Drug Administration [FDA] Cytochrome P450 (CYP) enzymes are membrane-bound hemeproteins that play a key role in metabolism of drugs and xenobiotics. […] The luciferin products formed are detected with a luciferin detection reagent, and the amount of light produced is proportional to CYP activity. […]
Records with an inconclusive call do not appear. The source made the active and inactive calls. The call rests on the fitted dose curve; in most records, active means well fitted inhibition curve with a large enough effect in the repeat runs; inconclusive means weak or mixed curves; inactive means no such curve, though single readings can be large or run the other way.
Choose the fitting class; nothing outside active, inactive is accepted.

Returns: the outcome recorded for CNC(=O)/C=C(\C)OP(=O)(OC)OC in this assay. inactive

What classification did CCOP(=S)(OCC)SC(CCl)N1C(=O)c2ccccc2C1=O (stereo not given) end up with in this test? active

What did this assay record as the result for CNC(C)(C)Cc1ccccc1 ? inactive

What classification did COC(=O)c1cc(Oc2ccc(Cl)cc2Cl)ccc1[N+](=O)[O-] end up with in this test? inactive

Test call, this molecule: CCN(CC)CCc1c[nH]c2ccccc12 inactive

Assay result, entry O=[N+]([O-])C(Br)Br — outcome? inactive

Which outcome was entered for the molecule CC[N+]1(CC)CCC(OC(=O)C(O)(c2ccccc2)c2ccccc2)C1 (stereo not given) in this test? inactive

What classification did CC(C)=CCN1CC[C@@]2(C)c3cc(O)ccc3C[C@@H]1[C@@H]2C end up with in this test? inactive

Attention now turns to another entry.
In this assay, the call recorded for CC(C)(C)c1ccc(OP(=O)(Oc2ccccc2)Oc2ccccc2)cc1 was what? inactive

Where do these numbers come from? They come from PubChem BioAssay (Tox21).
